Provide the reported pIC50 of each item.
# testSystem: Recombinant G2019S-LRRK2 protein (Homo sapiens (Human), UniProt Q5S007, G2019S)
# Sequence (Q5S007 whole entry G2019S): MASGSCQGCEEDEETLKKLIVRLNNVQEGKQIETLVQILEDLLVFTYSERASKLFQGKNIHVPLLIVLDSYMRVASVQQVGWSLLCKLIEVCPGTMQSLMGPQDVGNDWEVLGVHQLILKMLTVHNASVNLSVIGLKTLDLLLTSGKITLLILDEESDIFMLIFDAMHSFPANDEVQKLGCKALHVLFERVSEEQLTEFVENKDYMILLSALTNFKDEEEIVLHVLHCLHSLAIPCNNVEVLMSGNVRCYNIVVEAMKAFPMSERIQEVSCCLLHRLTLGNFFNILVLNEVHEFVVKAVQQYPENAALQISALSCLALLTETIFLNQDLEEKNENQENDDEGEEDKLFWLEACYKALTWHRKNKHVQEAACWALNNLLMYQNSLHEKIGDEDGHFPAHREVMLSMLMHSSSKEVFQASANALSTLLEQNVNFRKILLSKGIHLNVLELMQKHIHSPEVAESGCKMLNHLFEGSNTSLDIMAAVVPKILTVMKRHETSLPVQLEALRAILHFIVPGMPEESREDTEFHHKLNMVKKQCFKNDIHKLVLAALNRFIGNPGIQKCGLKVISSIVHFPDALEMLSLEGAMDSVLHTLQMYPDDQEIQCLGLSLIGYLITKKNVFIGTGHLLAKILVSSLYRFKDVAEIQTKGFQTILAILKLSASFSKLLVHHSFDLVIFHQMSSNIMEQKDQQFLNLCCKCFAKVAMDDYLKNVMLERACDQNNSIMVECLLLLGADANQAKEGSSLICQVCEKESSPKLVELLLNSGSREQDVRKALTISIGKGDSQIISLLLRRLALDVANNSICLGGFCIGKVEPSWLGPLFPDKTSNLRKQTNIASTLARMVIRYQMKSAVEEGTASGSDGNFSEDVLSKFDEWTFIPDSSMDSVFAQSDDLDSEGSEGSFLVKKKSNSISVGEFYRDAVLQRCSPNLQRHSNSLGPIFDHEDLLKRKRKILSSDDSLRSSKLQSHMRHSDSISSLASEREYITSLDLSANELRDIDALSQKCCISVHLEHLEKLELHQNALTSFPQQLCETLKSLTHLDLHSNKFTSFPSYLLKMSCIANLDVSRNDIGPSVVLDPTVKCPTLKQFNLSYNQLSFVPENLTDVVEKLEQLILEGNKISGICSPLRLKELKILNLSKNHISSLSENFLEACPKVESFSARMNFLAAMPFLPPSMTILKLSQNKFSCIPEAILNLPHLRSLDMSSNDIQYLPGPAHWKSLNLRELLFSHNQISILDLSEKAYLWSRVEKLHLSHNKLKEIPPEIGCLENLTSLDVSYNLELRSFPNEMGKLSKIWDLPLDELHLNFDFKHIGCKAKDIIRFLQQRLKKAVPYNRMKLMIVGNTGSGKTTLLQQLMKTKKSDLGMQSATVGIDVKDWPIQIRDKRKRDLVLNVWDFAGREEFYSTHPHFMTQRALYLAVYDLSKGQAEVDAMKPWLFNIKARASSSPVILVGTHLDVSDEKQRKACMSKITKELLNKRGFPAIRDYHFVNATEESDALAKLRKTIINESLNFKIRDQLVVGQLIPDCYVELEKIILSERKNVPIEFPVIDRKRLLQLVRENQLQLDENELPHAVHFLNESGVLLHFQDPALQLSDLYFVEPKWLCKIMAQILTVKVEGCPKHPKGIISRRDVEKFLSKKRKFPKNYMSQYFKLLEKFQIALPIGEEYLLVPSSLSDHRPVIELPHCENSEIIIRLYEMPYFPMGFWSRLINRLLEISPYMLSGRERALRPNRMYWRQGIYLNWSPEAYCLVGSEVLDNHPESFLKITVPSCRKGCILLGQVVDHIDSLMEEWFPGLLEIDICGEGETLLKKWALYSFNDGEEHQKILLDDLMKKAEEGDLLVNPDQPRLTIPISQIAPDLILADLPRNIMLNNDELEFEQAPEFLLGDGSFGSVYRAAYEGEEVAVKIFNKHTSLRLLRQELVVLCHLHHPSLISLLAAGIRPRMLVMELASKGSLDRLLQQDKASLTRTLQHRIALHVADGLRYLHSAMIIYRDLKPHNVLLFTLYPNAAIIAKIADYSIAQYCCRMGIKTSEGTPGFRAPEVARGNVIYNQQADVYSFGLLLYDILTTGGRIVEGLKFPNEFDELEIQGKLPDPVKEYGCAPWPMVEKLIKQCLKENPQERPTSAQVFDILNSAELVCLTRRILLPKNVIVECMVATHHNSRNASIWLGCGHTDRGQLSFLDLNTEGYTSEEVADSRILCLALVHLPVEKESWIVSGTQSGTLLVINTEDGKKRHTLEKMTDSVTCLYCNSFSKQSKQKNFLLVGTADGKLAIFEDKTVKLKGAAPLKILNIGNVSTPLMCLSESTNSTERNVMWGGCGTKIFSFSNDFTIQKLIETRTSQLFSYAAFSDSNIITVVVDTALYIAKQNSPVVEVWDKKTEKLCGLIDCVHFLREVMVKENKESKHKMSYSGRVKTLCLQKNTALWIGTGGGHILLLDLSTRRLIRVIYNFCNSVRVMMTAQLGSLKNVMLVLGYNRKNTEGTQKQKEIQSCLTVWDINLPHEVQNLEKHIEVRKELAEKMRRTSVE
# protocolDetails: LRRK2 kinase activity, LanthaScreen TR-FRET assay (G2019S)
# cond: LRRKtide 400 nM, 25 μM ATP, 60 min
pIC50: −log10 of the molar value.

*Q* What value of pIC50 has been reported for the following compound? Cc1n[nH]c2ccc(NC(=O)c3ncc(C#N)cc3C(C)C)cc12
*A* 6.00 to 7.00

*Q* What value of pIC50 has been reported for the following compound? Cc1cc(C#N)c(C)nc1C(=O)Nc1ccc2[nH]nc(-c3ccoc3)c2c1
*A* > 7.00

*Q* What value of pIC50 has been reported for the following compound? N#Cc1ccc(C(=O)Nc2ccc3[nH]nc(-c4ccoc4)c3c2)cc1
*A* > 7.00

*Q* What value of pIC50 has been reported for the following compound? Cc1cccc(-c2n[nH]c3ccc(NC(=O)c4ncc(C#N)cc4C)cc23)n1
*A* 6.00 to 7.00

*Q* What value of pIC50 has been reported for the following compound? Cc1n[nH]c(C#N)c1C(=O)Nc1ccc2[nH]nc(-c3ccoc3)c2c1
*A* > 7.00

*Q* What value of pIC50 has been reported for the following compound? N#Cc1ccc(C(=O)Nc2ccc3[nH]nc(-c4ccoc4)c3c2)c(O)c1
*A* 6.00 to 7.00

*Q* What value of pIC50 has been reported for the following compound? N#Cc1ncc(C(=O)Nc2ccc3[nH]nc(-c4ccoc4)c3c2)s1
*A* > 7.00

*Q* What value of pIC50 has been reported for the following compound? COc1cc(-c2n[nH]c3ccc(NC(=O)c4ncc(C#N)cc4C(F)(F)F)cc23)ccn1
*A* > 7.00

*Q* What value of pIC50 has been reported for the following compound? CCc1c(C#N)ccnc1C(=O)Nc1ccc2[nH]nc(-c3ccoc3)c2c1
*A* > 7.00

----------
# testSystem: Recombinant wild type LRRK2 protein (Homo sapiens (Human))
# Sequence (Q5S007 whole entry): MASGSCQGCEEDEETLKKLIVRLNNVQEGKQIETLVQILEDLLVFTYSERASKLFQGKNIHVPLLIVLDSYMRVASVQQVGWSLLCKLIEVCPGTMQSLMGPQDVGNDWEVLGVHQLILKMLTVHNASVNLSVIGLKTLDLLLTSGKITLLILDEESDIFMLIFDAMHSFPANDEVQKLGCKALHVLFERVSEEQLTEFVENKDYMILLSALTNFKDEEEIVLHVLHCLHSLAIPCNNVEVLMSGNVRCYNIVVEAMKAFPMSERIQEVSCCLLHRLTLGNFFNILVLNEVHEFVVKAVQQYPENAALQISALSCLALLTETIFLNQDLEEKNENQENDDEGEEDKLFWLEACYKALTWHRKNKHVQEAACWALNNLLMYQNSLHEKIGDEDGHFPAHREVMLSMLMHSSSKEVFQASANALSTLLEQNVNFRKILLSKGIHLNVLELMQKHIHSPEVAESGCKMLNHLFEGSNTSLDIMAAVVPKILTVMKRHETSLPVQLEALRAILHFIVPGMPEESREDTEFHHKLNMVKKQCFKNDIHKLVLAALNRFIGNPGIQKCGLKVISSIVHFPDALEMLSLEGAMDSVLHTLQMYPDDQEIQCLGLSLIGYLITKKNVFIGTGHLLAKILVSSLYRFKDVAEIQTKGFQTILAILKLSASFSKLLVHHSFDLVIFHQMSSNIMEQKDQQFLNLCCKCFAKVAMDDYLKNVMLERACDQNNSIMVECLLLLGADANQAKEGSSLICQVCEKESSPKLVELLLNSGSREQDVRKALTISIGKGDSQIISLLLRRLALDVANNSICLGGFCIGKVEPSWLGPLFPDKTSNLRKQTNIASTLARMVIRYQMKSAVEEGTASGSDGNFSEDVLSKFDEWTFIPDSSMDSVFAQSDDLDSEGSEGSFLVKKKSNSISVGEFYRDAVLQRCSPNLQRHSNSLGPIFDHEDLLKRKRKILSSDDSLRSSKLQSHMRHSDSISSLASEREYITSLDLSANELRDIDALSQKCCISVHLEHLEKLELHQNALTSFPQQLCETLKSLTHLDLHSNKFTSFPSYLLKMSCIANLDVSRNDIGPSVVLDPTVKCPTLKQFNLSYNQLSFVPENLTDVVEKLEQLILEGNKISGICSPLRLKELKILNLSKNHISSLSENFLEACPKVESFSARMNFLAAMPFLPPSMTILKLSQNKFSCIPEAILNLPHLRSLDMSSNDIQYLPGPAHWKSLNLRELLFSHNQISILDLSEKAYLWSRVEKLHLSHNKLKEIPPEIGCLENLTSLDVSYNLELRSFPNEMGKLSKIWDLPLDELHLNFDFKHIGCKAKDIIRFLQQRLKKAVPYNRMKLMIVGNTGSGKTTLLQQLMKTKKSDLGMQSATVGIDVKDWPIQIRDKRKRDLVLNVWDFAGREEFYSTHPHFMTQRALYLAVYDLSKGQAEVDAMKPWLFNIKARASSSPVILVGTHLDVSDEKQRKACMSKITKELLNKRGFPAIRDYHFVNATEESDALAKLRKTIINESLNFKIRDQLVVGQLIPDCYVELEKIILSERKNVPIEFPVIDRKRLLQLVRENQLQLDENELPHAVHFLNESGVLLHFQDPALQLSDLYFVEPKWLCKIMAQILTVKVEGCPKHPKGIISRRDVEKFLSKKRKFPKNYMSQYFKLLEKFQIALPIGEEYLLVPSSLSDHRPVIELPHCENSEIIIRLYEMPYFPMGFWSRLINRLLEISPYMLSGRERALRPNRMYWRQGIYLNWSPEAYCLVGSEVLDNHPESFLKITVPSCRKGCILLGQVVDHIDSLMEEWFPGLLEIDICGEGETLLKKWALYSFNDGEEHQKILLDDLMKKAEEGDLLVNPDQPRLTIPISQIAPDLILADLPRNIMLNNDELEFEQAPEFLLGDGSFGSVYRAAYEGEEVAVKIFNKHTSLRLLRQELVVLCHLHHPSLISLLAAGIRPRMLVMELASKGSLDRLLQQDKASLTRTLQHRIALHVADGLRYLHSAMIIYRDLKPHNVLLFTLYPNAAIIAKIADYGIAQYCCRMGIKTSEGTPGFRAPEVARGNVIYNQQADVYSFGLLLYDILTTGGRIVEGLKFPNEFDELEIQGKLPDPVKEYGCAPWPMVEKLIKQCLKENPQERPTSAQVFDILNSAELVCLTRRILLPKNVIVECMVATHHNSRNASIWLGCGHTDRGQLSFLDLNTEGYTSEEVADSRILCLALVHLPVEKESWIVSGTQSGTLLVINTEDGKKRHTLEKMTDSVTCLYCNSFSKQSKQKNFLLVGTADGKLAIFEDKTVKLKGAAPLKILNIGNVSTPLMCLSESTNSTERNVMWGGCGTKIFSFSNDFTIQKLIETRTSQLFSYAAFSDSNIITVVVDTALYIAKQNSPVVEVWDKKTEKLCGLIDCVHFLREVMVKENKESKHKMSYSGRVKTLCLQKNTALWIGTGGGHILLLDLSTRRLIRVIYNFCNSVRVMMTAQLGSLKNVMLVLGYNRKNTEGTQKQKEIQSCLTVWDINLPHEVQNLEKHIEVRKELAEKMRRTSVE
# protocolDetails: LRRK2 kinase activity, LanthaScreen TR-FRET assay (wild type)
# cond: LRRKtide 400 nM, 25 μM ATP, 60 min; read-out: LRRK2 WT IC50
observationType: IC50

*Q* What value of IC50 has been reported for the following molecule? Cc1cc(-c2n[nH]c3ccc(NC(=O)c4ncc(C#N)cc4C)cc23)on1 [Example 235]
*A* < 100 nM

*Q* What value of IC50 has been reported for the following molecule? N#Cc1ccc(F)c(C(=O)Nc2ccc3[nH]nc(-c4cnco4)c3c2)c1F [Example 188]
*A* < 100 nM

*Q* What value of IC50 has been reported for the following molecule? Cc1c(C#N)cnc(C(=O)Nc2ccc3[nH]nc(/C=C/c4ccncc4)c3c2)c1C [Example 281]
*A* < 100 nM

*Q* What value of IC50 has been reported for the following molecule? Cc1cc(F)cc(-c2n[nH]c3ccc(NC(=O)c4ncc(C#N)cc4C)cc23)c1 [Example 61]
*A* 100 to 1000 nM

----------
# testSystem: Recombinant wild type LRRK2 protein (Homo sapiens (Human))
# protocolDetails: LRRK2 kinase activity, LanthaScreen TR-FRET assay (wild type)
# cond: LRRKtide 400 nM, 25 μM ATP, 60 min; read-out: LRRK2 WT IC50
# Description: LRRK2 kinase activity was measured using a LanthaScreen™ Kinase Activity Assay from ThermoFisher Scientific. Recombinant wild type or G2019S-LRRK2 protein (Life Technologies, PR8604B or PV4881, respectively), was incubated with a fluorescein-labeled peptide substrate called LRRKtide that is based upon ezrin/radixin/moesin (ERM) (Life Technologies, PV4901) in the presence of ATP and serially diluted compound. […]
Provide the reported IC50 of each item.

*Q* What value of IC50 has been reported for the following compound? COc1ccc(-c2n[nH]c3ccc(NC(=O)c4ncc(C#N)cc4C)cc23)cc1 [Example 47]
*A* 0.1 to 1 µM

*Q* What value of IC50 has been reported for the following compound? Cc1cc(C#N)cnc1C(=O)Nc1ccc2[nH]nc(-c3ccnc(N4C[C@H](C)C[C@H](C)C4)c3)c2c1 [Example 117]
*A* 0.1 to 1 µM

*Q* What value of IC50 has been reported for the following compound? Cc1cc(C#N)cnc1C(=O)Nc1ccc2[nH]nc(-n3cccn3)c2c1 [Example 136]
*A* 1 to 10 µM

*Q* What value of IC50 has been reported for the following compound? N#Cc1ccc(F)c(C(=O)Nc2ccc3[nH]nc(-c4ccoc4)c3c2)c1F [Example 120]
*A* < 0.1 µM

*Q* What value of IC50 has been reported for the following compound? COc1cc(C#N)ccc1C(=O)Nc1ccc2[nH]nc(-c3ccoc3)c2c1 [Example 15]
*A* 0.1 to 1 µM

*Q* What value of IC50 has been reported for the following compound? C=Cc1cc(C#N)cnc1C(=O)Nc1ccc2[nH]nc(-c3ccoc3)c2c1 [Example 84]
*A* 0.1 to 1 µM

*Q* What value of IC50 has been reported for the following compound? Cc1cc(C#N)cnc1C(=O)Nc1ccc2[nH]nc(-c3ccc(Cl)s3)c2c1 [Example 139]
*A* 1 to 10 µM
